Recorded pERK ICW EC50 for the following binders
Target: human FGFR1c together with human beta-Klotho (KLB), stably expressed on CHO Flp-In cells (human), P11362
Sequence (P11362 22-822, chain 1 of 2): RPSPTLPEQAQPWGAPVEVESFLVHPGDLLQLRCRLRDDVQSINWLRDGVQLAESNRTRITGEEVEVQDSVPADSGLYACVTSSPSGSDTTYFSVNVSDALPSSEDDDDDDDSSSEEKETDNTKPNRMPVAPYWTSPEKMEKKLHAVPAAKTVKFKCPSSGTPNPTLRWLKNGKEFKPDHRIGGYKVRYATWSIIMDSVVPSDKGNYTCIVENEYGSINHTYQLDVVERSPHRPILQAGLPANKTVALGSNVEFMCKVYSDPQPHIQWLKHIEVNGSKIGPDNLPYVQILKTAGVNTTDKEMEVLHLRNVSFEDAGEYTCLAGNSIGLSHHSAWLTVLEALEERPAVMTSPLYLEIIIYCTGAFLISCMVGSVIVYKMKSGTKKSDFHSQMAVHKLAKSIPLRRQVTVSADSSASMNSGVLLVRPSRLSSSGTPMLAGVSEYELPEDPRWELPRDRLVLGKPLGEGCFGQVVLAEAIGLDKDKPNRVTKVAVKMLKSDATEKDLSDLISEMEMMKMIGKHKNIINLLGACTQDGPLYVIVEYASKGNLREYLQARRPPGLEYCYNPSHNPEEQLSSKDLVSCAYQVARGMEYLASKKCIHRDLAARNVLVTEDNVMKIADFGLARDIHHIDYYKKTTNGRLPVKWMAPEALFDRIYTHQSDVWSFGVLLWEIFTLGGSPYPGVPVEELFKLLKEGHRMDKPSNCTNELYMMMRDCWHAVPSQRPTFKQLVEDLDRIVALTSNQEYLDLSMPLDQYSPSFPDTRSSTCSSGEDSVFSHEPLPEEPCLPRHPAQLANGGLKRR
Sequence (Q86Z14 whole entry, chain 2 of 2, further chain): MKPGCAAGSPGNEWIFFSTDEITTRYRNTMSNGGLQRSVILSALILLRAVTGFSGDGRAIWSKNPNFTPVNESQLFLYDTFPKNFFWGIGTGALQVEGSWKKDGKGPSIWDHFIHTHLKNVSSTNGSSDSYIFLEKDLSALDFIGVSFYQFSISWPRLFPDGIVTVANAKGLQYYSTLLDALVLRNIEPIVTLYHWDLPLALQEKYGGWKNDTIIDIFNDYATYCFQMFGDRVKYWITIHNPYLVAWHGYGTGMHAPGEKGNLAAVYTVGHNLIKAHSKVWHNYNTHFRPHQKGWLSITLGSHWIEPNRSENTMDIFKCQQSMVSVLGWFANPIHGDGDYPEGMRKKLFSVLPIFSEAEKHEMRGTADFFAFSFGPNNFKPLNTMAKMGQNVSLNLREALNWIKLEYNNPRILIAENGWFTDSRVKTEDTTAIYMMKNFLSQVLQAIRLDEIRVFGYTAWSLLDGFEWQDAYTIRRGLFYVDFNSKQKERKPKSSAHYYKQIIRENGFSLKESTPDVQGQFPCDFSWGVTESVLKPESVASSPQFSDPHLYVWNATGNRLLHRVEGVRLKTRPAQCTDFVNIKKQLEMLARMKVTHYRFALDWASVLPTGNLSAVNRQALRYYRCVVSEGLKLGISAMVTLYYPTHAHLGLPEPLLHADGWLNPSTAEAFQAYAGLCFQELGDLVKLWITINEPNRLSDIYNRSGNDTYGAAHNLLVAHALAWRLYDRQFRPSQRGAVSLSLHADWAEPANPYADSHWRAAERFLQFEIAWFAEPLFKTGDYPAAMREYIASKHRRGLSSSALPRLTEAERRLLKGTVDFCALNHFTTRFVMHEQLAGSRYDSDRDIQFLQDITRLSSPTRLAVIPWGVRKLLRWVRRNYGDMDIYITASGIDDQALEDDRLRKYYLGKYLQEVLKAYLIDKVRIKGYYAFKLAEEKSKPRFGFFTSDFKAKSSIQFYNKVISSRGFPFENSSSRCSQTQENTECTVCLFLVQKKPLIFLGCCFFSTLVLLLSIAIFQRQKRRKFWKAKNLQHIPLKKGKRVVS
Assay: cell-based or functional assay
EXPERIMENTAL ENDPOINT: pERK ICW EC50 (nmol/L)

- BINDER: "FGF21 R154Q, D155K (SEQ ID NO: 131), Q9NSA1 29-209 (ligand) GHPIPDSSPLLQFGGQVRQRYLYTDDAQQTEAHLEIREDGTVGGAADQSPESLLQLKALKPGVIQILGVKTSRFLCQRPDGALYGSLHFDPEACSFRELLLEDGYNVYQSEAHGLPLHLPGNKSPHQKPAPRGPARFLPLPGLPPAPPEPPGILAPQPPDVGSSDPLSMVGPSQGRSPSYAS"
  EXPERIMENTAL RESULT: 0.39
- BINDER: "FGF21 R159-R163 deleted and replaced by HE (SEQ ID NO: 150), Q9NSA1 29-209 (ligand) GHPIPDSSPLLQFGGQVRQRYLYTDDAQQTEAHLEIREDGTVGGAADQSPESLLQLKALKPGVIQILGVKTSRFLCQRPDGALYGSLHFDPEACSFRELLLEDGYNVYQSEAHGLPLHLPGNKSPHRDPAPHEFLPLPGLPPAPPEPPGILAPQPPDVGSSDPLSMVGPSQGRSPSYAS"
  EXPERIMENTAL RESULT: 0.98
- BINDER: "FGF21 A162Y (SEQ ID NO: 151), Q9NSA1 29-209 (ligand) GHPIPDSSPLLQFGGQVRQRYLYTDDAQQTEAHLEIREDGTVGGAADQSPESLLQLKALKPGVIQILGVKTSRFLCQRPDGALYGSLHFDPEACSFRELLLEDGYNVYQSEAHGLPLHLPGNKSPHRDPAPRGPYRFLPLPGLPPAPPEPPGILAPQPPDVGSSDPLSMVGPSQGRSPSYAS"
  EXPERIMENTAL RESULT: 0.08
